Consider compounds characterized by their pIC50 with ErbB-2 (HER-2) (Homo sapiens, UniProt P04626).
Sequence (P04626 23-1255): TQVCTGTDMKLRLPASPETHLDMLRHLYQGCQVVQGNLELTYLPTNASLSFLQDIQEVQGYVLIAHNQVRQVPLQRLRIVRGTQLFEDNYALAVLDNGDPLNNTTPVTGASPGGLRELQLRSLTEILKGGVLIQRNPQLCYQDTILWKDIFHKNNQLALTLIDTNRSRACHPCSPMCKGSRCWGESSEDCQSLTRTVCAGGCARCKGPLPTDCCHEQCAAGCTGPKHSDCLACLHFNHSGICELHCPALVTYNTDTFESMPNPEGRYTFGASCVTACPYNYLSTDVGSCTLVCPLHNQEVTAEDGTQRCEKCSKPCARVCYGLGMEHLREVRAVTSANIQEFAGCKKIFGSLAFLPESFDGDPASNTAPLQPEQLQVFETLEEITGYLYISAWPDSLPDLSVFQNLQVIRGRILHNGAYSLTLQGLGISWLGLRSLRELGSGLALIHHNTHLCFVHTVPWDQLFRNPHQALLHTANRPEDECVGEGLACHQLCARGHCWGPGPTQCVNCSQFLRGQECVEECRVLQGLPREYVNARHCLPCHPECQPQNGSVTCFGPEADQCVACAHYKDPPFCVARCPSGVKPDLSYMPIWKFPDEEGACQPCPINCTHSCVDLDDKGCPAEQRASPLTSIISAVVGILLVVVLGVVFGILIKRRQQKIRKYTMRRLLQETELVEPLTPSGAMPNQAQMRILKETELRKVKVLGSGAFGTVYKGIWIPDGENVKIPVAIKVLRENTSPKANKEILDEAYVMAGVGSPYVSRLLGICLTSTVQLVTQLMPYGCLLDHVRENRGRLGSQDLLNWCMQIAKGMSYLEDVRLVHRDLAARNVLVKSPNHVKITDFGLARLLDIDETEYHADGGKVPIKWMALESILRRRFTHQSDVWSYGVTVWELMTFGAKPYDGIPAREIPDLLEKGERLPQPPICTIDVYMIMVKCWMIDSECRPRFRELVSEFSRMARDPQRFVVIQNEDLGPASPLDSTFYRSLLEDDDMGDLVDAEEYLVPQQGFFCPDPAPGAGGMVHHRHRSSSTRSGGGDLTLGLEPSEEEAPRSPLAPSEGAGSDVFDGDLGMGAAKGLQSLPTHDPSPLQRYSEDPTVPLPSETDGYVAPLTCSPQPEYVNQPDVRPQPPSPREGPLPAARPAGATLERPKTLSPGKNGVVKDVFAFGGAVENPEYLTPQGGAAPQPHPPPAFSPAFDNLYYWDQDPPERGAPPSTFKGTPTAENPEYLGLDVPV
Answers are plain numbers, as −log10 of the molar value.

QUERY: State its pIC50 on ErbB-2 (HER-2) (Homo sapiens, UniProt P04626): Cc1cccc(-c2n[nH]cc2-c2ccnc(Nc3ccc(OCCN(C)C)cc3)n2)c1 [Example 20]
RESULT: 7.82

QUERY: Then CN(C)CCOc1ccc(Nc2nccc(-c3c[nH]nc3-c3ccc(Cl)c(Cl)c3)n2)cc1 [Example 21] ?
RESULT: 7.80

QUERY: Try this compound next: Cc1ccc(-c2n[nH]cc2-c2ccnc(Nc3cccc(OCC4CCN(C)CC4)c3)n2)cc1 [Example 124]
RESULT: 7.77

Alright, here's another compound for you.
QUERY: Test system ErbB-2 (HER-2) (Homo sapiens, UniProt P04626); read-out pIC50; what value for Cc1cccc(-c2n[nH]cc2-c2ccnc(Nc3ccc(N4CCN(C)CC4)cc3)n2)c1 [Example 18] ?
RESULT: 7.89

----------
Entries whose melting point is below 200 °C take condition met; entries at or above 200 °C take condition not met.

QUERY: Take the compound Cc1ccc(-c2n[nH]cc2-c2ccnc(Nc3ccc(C(=O)O)cc3)n2)cc1 [Example 58] and say whether its melting point is less than 200 °C.
RESULT: condition not met

QUERY: Same question, CCN1CCN(c2ccc(Nc3nccc(-c4c[nH]nc4-c4ccc(Cl)cc4)n3)cc2)CC1 [Example 121] this time
RESULT: condition not met

QUERY: Subsequent entry: Cc1ccc(-c2c(-c3ccnc(Nc4ccc(CN5CCN(C)CC5)cc4)n3)cnn2C2CCN(C)CC2)cc1 [Example 84]
RESULT: condition met

QUERY: What about this compound? CN1CCN(Cc2ccc(Nc3nccc(-c4c[nH]nc4-c4cccc(C(F)(F)F)c4)n3)cc2)CC1 [Example 110]
RESULT: condition not met

QUERY: Would you mind doing Cc1ccc(-c2c(-c3ccnc(Nc4ccc(N5CCN(C)CC5)cc4)n3)cnn2CCN(C)C)cc1 [Example 54] as well?
RESULT: condition met

QUERY: Now the compound Cc1ccc(-c2nn(C)cc2-c2ccnc(Nc3ccc(CN4CCN(C)CC4)cc3)n2)cc1 [Example 66]
RESULT: condition met

Okay, now this compound:
QUERY: Field: below-cutoff. Rule: recorded melting point strictly less than 200 °C. Subject: Cc1ccc(-c2c(-c3ccnc(Nc4ccc(CN5CCN(C)CC5)cc4)n3)cnn2CCN(C)C)cc1 [Example 82]
RESULT: condition met

----------
property: melting point (°C)
Give bare numbers, in °C.

QUERY: Find the recorded melting point belonging to COc1cccc(Nc2nccc(-c3cn(CC4CCN(C)CC4)nc3-c3ccc(Cl)cc3)n2)c1 [Example 107] and report it.
RESULT: 65

QUERY: What would you report for COc1cc(Nc2nccc(-c3c[nH]nc3-c3ccccc3Cl)n2)cc(OC)c1OC [Example 53] ?
RESULT: 257.5

QUERY: What do you have for CN1CCC(COc2cccc(Nc3nccc(-c4cn(C)nc4-c4ccc(Cl)cc4)n3)c2)CC1 [Example 112] ?
RESULT: 138

QUERY: Next entry: COc1cc(OC)cc(-c2n[nH]cc2-c2ccnc(Nc3cccc(S(N)(=O)=O)c3)n2)c1 [Example 113]
RESULT: 257

QUERY: Request: CCN1CCN(Cc2ccc(Nc3nccc(-c4cnn(C)c4-c4ccc(C)cc4)n3)cc2)CC1 [Example 118]
RESULT: 82

QUERY: Also Clc1ccc(-c2n[nH]cc2-c2ccnc(Nc3ccc(N4CCNCC4)cc3)n2)cc1 [Example 122] ?
RESULT: 214

QUERY: Entry CCN1CCN(Cc2ccc(Nc3nccc(-c4cn(C)nc4-c4ccc(C)cc4)n3)cc2)CC1 [Example 117] please
RESULT: 88

QUERY: Follow-up entry: CN1CCN(Cc2ccc(Nc3nccc(-c4cn(C)nc4-c4ccc(Cl)cc4)n3)cc2)CC1 [Example 78]
RESULT: 166

# batch: return melting point for each of the 2 compounds below
1. COc1cc(Nc2nccc(-c3cn(CCN(C)C)nc3-c3ccc(Cl)cc3)n2)cc(OC)c1OC [Example 70]
2. Cc1ccc(-c2n[nH]cc2-c2ccnc(Nc3ccc(CN4CCN(CCO)CC4)cc3)n2)cc1 [Example 111]

RESULT:
1. 150
2. 233

QUERY: What value of measured melting point is listed for CCN1CCN(Cc2ccc(Nc3nccc(-c4c[nH]nc4-c4ccccc4)n3)cc2)CC1 [Example 115] ?
RESULT: 227
